- System: STn on bovine submaxillary mucin (BSM)
- EXPERIMENTAL_DETAILS: Anti-STn BSM ELISA, non-treated and periodate-treated wells
- Type: binding
- EXPERIMENTAL_CONTEXT: BSM ELISA without and after periodate treatment
RECORDED_METRIC: hybridoma screening: specificity for STn

{"columns": ["MOLECULE", "RECORDED_METRIC", "DATA_VALUE"],
 "data": [
  ["7G9: anti-STn mouse monoclonal, IgG2b κ, from mouse #4407; VH SEQ ID NO: 12, VL SEQ ID NO: 9 (antibody, V domains shown) VH: QVQLKESGPGLVAPSQNLSITCTVSGFSLTSYGVNWVRQPPGKGLEWLGVIWGDGSTNYHSALISRLIISKENSKSQVFLKLNSLQTNDTATYYCTKGFVYWGQGTLVTVSA VL: QIVLTQSPAIMSASPGEKVTMTCSASSSVSYMHWYQQKSGTSPKRWIFDTSKLASGVPARFSGSGSGTSYSLTISSMEAEDAATYYCQQWSSNLLTFGAGTKLELK", "hybridoma screening: specificity for STn", "specific for STn"],
  ["10A5: anti-STn mouse monoclonal, IgG2c κ, from mouse #4406; VH SEQ ID NO: 6, VL SEQ ID NO: 7 (antibody, V domains shown) VH: QVQLKESGPGLVAPSQSLSITCTVSGFSLTSYGVSWVRQPPGKGLEWLGVIWGDGSTNYHSSLISRLSISKDNSKSQVFLKLNSLQTDDTATYYCARAFVYWGQGTLVTVSA VL: QIVLTQSPAIMSASPGEKVTMTCSASSSVSYIHWYQQKSGTSPKRWIYDTSKLASGVPARFSGSGSGTSYSLTISSMEAEDAATYYCQQWSSNPPMLTFGAGTKLELK", "hybridoma screening: specificity for STn", "specific for STn"],
  ["18C7: anti-STn mouse monoclonal, IgG2c κ, from mouse #4436; VH SEQ ID NO: 4, VL SEQ ID NO: 5 (antibody, V domains shown) VH: QVTLKESGPGILQPSQTLSLTCSFSGFSLSTFGMGVGWIRQPSGKGLEWLAHIWWDDDKYYNPALKSRLTISKDTSKNQVFLKIANVDTADTATYYCARIAYYYGSERDYWGQGTTLTVSS VL: QIVLTQSPAIMSASPGEKVTMTCSASSSISYMHWYHQKPGTSPKRWIYDTSKLASGVPARFSGSGSGTSYSLTISSMEAEDAATYYCHQRSSYTFGGGTKLEIKR", "hybridoma screening: specificity for STn", "specific for STn"]
]}

Sourced from patent US20180280504A1
